The measurements presented in this section are drawn from PubChem BioAssay AID1963868.

- Tested on: KRAS PDC tumor spheroids (HUVEC+MSC), viability;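 further: spheroids exposed to compounds for seven days before readout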
- experiment: Anticancer human tumor 254851-301-R-J1-PDC patient-derived colon carcinoma cell line growth inhibition [KRAS2]; active means viability on the fitted dose curve at most 10% of control; inactive means the rest
- recorded-conditions: second compound 3.16 µM; first compound 10 µM
Outcome (select one): active, inactive

Would you please look over these solved cases?
{"compound": "CC1(C)CCC(CN2CCN(c3ccc(C(=O)NS(=O)(=O)c4ccc(NCC5CCOCC5)c([N+](=O)[O-])c4)c(Oc4cnc5[nH]ccc5c4)c3)CC2)=C(c2ccc(Cl)cc2)C1 + CNCc1ccccc1-c1csc(C(C)Nc2nc(C)nc3cc(OC)c(OC)cc23)c1", "target-system": "KRAS PDC tumor spheroids (HUVEC+MSC), viability", "class-label": "active"}
{"compound": "Cn1nccc1Nc1nccc(-c2cc3c(s2)C(C)(C)N(CCN2CCOCC2)C3=O)n1 + C=CC(=O)N1CCN(c2nc(OCC3CCCN3C)nc3c2CCN(c2cccc4cccc(C)c24)C3)CC1CC#N", "target-system": "KRAS PDC tumor spheroids (HUVEC+MSC), viability", "class-label": "active"}
{"compound": "CC1(C)CCC(CN2CCN(c3ccc(C(=O)NS(=O)(=O)c4ccc(NCC5CCOCC5)c([N+](=O)[O-])c4)c(Oc4cnc5[nH]ccc5c4)c3)CC2)=C(c2ccc(Cl)cc2)C1 + C=CC(=O)N1CCN(c2nc(OCC3CCCN3C)nc3c2CCN(c2cccc4cccc(C)c24)C3)CC1CC#N", "target-system": "KRAS PDC tumor spheroids (HUVEC+MSC), viability", "class-label": "active"}

stdin: Hi team, can someone confirm the assay call for Cn1nccc1Nc1nccc(-c2cc3c(s2)C(C)(C)N(CCN2CCOCC2)C3=O)n1 + CC1OCC2(CCN(c3cnc(Sc4ccnc(N)c4Cl)c(N)n3)CC2)C1N ?
stdout: active

stdin: Assay outcome for O=C(c1cc(Cc2n[nH]c(=O)c3ccccc23)ccc1F)N1CCN(C(=O)C2CC2)CC1 + COc1cc2nc(C)nc(NC(C)c3cc(N)cc(C(F)(F)F)c3)c2cc1OC1CCOC1 : what was it?
stdout: inactive
